- Test Target: T1, extracellular domain (ECD) of murine IGSF11, biotinylated (mouse, UniProt P0C673 23-240, biotinylated (site not stated))
- T1 construct: also called Mouse IGSF11; murine IGSF11 protein
- T1 sequence: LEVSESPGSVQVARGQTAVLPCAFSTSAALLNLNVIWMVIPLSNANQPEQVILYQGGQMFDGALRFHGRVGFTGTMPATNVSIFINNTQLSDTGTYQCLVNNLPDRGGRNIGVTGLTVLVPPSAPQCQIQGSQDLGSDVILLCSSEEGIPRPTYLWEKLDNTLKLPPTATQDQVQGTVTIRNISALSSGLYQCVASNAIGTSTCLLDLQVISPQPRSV
- Assay Explanation: ELISA, scFv; RFU grade (*** >1.0, ** 0.5-1.0, * 0.1-0.5)

Binder	relative fluorescent units (RFU), ELISA
A-014 (scFv format) (scFv, V domains shown, scFv) VH: QVQLVQSGAEVKKPGASVKVSCKASGYTFNDYYIHWVRQAPGQGLEWMGWFNPSTGGANYAQKFQGRVTMTRDTSISTAYLEVSSLRSDDTAVYYCARGNSPDLDYWGQGTLVTVSS VL: DIQMTQSPDSLTVSLGERATINCKSSQSLLHSSNNKNYLAWYQQRPGQPPKLLIYWASTRQSGVPDRFSGSGSGTDFTLTINSLQADDMAVYYCQQYYTTTPNTFGQGTKLEIK	0.1 to 0.5 rfu
A-005 (scFv format) (scFv, V domains shown, scFv) VH: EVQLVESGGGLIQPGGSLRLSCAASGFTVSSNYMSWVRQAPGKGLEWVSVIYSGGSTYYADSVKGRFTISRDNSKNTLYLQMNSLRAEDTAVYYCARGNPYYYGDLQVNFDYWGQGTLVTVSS VL: QAVVTQEPSLTVSPGETVTLTCASSTGAVTSGYYPNWFQQRPGQAPRALIYSTSNKDSWTPARFSGSLLGGKAALTLSGVQPEDEAEYYCLLYYGGAWVFGGGTKLTVL	0.1 to 0.5 rfu
A-004 (scFv format) (scFv, V domains shown, scFv) VH: EVQLVESGGGLVKPGGSLRLSCAASGFTFSSYSMNWVRQAPGKGLEWVSSISSSSSYIYYADSVKGRFTISRDNAKNSLYLQMNSLRAEDTAVYYCARGQLLWFGESALIDAFDIWGQGTMVTVSS VL: EIVLTQSPSSLSASVGDRVTITCRASQSISSYLNWYQLKPGKAPKLLIYAASILQSGVPSRFSGSGSGTDFTLTISSLQPEDFAAYYCQQSYSTPRTFGQGTKLEIK	> 1 rfu
